Where these numbers come from: patent US20230265151A1

Collected cAMP EC50 values appear next to each entry.
# SYSTEM TESTED: human glucagon-like peptide-1 (GLP-1) receptor (human, UniProt P43220 24-463)
# MEASUREMENT NOTES: cell-based or functional assay
*1 amine or outer side, *2 acyl side, *3 side chain or, on linkers, in order; H or OH if unused. Where no end group is shown, it is not given here. Side-chain parts run from the residue outwards. [ ]: non-standard residue; d: D form. The star is where a group is joined. Butanoyl(4-(4-tBuPh)) = CC(C)(C)c1ccc(CCCC(=O)*)cc1; αMePhe(2-F) = C[C@](N)(Cc1ccccc1F)C(=O)O; γGlu = O=C(O)[C@H](CCC(=O)[*:2])N[*:1]; αMeY = C[C@](N)(Cc1ccc(O)cc1)C(=O)O; αMeL = CC(C)C[C@](C)(N)C(=O)O; Orn = NCCC[C@H](N)C(=O)O; AEEA = NCCOCCOCC(=O)O; Aib = CC(C)(N)C(=O)O
Write the value in nM as a bare number.

# example entries with known answers
INSERT INTO assay_data (binder, measured_result) VALUES
  ('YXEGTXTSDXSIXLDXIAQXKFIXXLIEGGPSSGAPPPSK (Aib2, αMeF(2F)6, 4Pal10, αMeL13, Orn16, Aib20, K21(Z), D-Glu24, αMeY25, K40(Z), C-terminal NH2; Z = AEEA3-(γ-Glu)-CO-(CH2)12-CO2H) [Example 228]', 1.34),
  ('Y[Aib]EGT[αMePhe(2-F)]TSDV[Aib]I[αMeL]LD[Orn]K([AEEA-AEEA-γGlu-Butanoyl(4-(4-tBuPh))])AQ[Aib]EFI[dE][αMeY]LIEGGK([AEEA-AEEA-γGlu-Butanoyl(4-(4-tBuPh))])SSGAPPPS-NH2 [Example 177]', 0.178),
  ('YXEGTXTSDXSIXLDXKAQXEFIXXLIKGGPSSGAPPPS (Aib2, αMeF(2F)6, 2Nal10, αMeL13, Orn16, K17(Z), Aib20, D-Glu24, αMeY25, K28(Z), C-terminal NH2; Z = AEEA2-(γ-Glu)-(10-(4-carboxyphenoxy)decanoyl)) [Example 282]', 0.216);

Problem: cAMP EC50 for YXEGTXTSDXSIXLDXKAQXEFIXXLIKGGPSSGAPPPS (Aib2, αMeF(2F)6, 4Pal10, αMeL13, Orn16, K17(Z), Aib20, D-Glu24, αMeY25, K28(Z), C-terminal NH2; Z = AEEA3-(γ-Glu)-CO-(CH2)12-CO2H) [Example 224] ?
Solution: 7.51

Problem: Quick one: cAMP EC50 for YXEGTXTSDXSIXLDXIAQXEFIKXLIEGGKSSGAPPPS (Aib2, αMeF(2F)6, 4Pal10, αMeL13, Orn16, Aib20, K24(Z), αMeY25, K31(Z), C-terminal NH2; Z = (εK)-(γ-Glu)-CO-(CH2)12-CO2H) [Example 197] ?
Solution: 0.336
